testedTarget: CK1d (Homo sapiens)
Construct: purchased ReactionBiology
Sequence (P48730 whole entry): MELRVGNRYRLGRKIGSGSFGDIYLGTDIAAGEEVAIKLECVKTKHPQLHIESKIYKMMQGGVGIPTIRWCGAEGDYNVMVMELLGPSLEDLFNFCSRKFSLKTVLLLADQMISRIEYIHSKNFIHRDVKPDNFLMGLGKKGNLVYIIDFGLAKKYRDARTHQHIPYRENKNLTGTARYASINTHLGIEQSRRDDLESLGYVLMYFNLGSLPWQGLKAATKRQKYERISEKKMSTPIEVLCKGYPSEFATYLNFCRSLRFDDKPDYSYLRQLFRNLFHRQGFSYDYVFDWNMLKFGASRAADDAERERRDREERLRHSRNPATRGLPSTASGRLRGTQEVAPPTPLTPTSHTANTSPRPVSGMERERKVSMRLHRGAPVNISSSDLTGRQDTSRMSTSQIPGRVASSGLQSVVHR
experimentalProtocol: Kinase activity test (ReactionBiology), % enzyme activity relative to DMSO
Format: biochemical
details: CK1d; 10 uM; Average; read-out: % Enzyme Activity (relative to DMSO controls), Average
Rule: remaining activity at 10 µM below 50% gives True. Equal to or above 50% gives False.

Inquiry: Regarding N[C@@H](Cc1cc(I)c(Oc2cc(I)c(O)c(I)c2)c(I)c1)C(=O)O [Thyroxine, reference compound] , kindly confirm whether its remaining activity at 10 µM is beneath 50%.
Reply text: False

Inquiry: What do you have for Cc1ccc(C(=O)c2cc(O)c(O)c([N+](=O)[O-])c2)cc1 [Tolcapone, reference compound] ?
Reply text: True

Inquiry: What do you have for Oc1cc(Cl)ccc1Oc1ccc(Cl)cc1Cl [Triclosan, reference compound] ?
Reply text: False

Inquiry: What do you have for O=C(O)c1ccccc1O ?
Reply text: False

###

testedTarget: VEGFR2 (Homo sapiens)
Sequence (P35968 20-1356): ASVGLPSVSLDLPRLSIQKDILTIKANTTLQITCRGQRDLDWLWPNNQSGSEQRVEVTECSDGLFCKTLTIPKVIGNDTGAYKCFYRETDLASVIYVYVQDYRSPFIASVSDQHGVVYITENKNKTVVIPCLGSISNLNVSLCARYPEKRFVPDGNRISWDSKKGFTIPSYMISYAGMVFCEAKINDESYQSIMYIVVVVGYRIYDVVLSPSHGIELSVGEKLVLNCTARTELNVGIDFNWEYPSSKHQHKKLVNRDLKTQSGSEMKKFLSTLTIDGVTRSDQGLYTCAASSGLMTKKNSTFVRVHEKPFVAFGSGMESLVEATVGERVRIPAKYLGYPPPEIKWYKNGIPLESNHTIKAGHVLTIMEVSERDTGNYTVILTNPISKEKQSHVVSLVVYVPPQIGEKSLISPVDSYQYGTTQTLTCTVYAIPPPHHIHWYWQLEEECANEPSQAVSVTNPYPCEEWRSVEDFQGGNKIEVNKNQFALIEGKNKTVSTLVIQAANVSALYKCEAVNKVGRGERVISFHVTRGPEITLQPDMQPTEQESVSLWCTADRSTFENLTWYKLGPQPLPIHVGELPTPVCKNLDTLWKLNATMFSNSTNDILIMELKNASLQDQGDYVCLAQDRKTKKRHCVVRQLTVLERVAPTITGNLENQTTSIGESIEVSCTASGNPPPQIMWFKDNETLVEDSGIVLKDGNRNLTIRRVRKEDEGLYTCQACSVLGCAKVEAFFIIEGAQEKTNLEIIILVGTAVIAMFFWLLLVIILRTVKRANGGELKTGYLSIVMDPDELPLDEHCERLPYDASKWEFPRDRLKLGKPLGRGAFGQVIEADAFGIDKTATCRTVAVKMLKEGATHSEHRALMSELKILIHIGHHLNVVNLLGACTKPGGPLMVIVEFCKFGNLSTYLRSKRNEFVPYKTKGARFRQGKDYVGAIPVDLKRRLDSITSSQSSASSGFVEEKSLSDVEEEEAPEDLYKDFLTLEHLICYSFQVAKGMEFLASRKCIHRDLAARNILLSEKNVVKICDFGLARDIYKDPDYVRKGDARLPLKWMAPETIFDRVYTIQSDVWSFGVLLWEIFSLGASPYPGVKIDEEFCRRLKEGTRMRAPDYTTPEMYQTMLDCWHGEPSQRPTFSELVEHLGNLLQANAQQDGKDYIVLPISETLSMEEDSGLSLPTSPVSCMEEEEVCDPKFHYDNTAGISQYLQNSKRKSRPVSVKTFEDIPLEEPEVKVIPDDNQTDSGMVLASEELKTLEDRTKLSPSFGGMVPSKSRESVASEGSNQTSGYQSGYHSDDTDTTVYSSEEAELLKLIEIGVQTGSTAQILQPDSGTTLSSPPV
experimentalProtocol: Kinase activity test (ReactionBiology), % enzyme activity relative to DMSO
Assay type: biochemical
Parameters: purchased ReactionBiology
details: VEGFR2; 1 uM; replicate Data 1; read-out: % Enzyme Activity (relative to DMSO controls), Data 1
reportedMetric: remaining activity at 1 µM (%)
Write the answer as a number in %, unit excluded.

Inquiry: Lab note: need remaining activity at 1 µM with VEGFR2 (Homo sapiens) for entry CC(=O)O[C@H]1C[C@@]2(C)[C@@H](C[C@@H](O)[C@H]3[C@@]4(C)CC[C@@H](O)[C@@H](C)[C@@H]4CC[C@@]32C)/C1=C(\CCC=C(C)C)C(=O)O [Fusidic acid] , please look it up.
Reply text: 110

Inquiry: What do you have for Cc1ccc(C(=O)Nc2ccc(S(=O)(=O)O)c3cc(S(=O)(=O)O)cc(S(=O)(=O)O)c23)cc1NC(=O)c1cccc(NC(=O)Nc2cccc(C(=O)Nc3cc(C(=O)Nc4ccc(S(=O)(=O)O)c5cc(S(=O)(=O)O)cc(S(=O)(=O)O)c45)ccc3C)c2)c1 [Suramin, reference compound] ?
Reply text: 73.6

Inquiry: What do you have for NC(=O)c1cccnc1 [Niacinamide, reference compound] ?
Reply text: 97.5

Inquiry: What do you have for O=C(O)c1ccccc1O [Salicylic acid] ?
Reply text: 94.4

Inquiry: What do you have for Cc1cc(C#N)cc(C)c1Oc1nc(Nc2ccc(C#N)cc2)nc(N)c1Br [Etravirine, reference compound] ?
Reply text: 108

Inquiry: What do you have for N[C@@H](Cc1cc(I)c(Oc2cc(I)c(O)c(I)c2)c(I)c1)C(=O)O [Thyroxine, reference compound] ?
Reply text: 106

Inquiry: What do you have for Oc1cc(Cl)ccc1Oc1ccc(Cl)cc1Cl [Triclosan, reference compound] ?
Reply text: 108

###

testedTarget: DAPK1 (Homo sapiens, UniProt P53355)
Construct: purchased ReactionBiology
Sequence (P53355 whole entry): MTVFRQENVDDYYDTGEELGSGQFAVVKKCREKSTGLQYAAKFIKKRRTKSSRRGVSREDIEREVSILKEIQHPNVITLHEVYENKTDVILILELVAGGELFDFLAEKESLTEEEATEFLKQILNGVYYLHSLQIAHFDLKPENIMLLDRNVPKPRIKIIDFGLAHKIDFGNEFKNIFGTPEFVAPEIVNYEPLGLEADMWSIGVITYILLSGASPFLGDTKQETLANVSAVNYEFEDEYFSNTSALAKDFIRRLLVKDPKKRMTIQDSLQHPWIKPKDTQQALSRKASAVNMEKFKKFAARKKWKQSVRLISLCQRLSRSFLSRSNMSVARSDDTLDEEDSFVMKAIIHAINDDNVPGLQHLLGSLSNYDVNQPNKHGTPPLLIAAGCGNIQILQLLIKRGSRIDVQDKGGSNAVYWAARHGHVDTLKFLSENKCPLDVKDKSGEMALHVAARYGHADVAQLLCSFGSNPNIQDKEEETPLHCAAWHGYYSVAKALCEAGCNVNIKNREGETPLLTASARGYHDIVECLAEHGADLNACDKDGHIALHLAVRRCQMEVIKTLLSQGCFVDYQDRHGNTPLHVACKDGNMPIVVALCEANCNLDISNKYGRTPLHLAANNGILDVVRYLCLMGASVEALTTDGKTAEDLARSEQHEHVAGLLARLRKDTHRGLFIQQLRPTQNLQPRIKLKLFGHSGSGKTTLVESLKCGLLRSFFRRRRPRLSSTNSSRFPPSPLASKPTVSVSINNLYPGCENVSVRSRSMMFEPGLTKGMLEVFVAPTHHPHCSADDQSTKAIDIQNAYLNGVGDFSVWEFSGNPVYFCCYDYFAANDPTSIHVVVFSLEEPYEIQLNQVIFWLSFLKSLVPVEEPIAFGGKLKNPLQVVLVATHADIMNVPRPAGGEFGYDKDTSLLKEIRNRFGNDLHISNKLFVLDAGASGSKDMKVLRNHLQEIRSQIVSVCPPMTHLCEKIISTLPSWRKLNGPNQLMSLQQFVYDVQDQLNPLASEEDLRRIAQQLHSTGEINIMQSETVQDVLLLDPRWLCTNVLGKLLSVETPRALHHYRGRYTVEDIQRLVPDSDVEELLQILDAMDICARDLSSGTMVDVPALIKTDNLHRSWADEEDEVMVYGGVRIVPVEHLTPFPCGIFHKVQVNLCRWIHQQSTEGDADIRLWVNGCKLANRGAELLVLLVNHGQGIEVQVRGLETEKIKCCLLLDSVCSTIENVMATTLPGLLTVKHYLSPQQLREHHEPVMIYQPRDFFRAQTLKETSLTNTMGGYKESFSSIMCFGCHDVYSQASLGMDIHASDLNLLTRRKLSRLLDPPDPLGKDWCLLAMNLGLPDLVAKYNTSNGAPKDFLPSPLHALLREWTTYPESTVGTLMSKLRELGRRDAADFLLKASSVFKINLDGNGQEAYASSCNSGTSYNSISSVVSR
experimentalProtocol: Kinase activity test (ReactionBiology), % enzyme activity relative to DMSO
Assay type: biochemical
details: DAPK1; 10 uM; Average; read-out: % Enzyme Activity (relative to DMSO controls), Average
reportedMetric: remaining activity at 10 µM (%)
Write the answer as a number in %, unit excluded.

Inquiry: What value of remaining activity at 10 µM has been reported for the following molecule? NCCCCCC(=O)O
Reply text: 110

Inquiry: What do you have for CN(C)CCOc1ccc(/C(=C(/CCCl)c2ccccc2)c2ccccc2)cc1 [Toremifene, reference compound] ?
Reply text: 14.8

Inquiry: What do you have for Nc1ncnc2c1ncn2[C@@H]1O[C@H](CO)[C@@H](O)[C@H]1O [Adenosine, reference compound] ?
Reply text: 81.1

Inquiry: What do you have for Cc1cccc(C)c1OCC(=O)N[C@@H](Cc1ccccc1)[C@@H](O)C[C@H](Cc1ccccc1)NC(=O)[C@H](C(C)C)N1CCCNC1=O [Lopinavir, reference compound] ?
Reply text: 49.9

Inquiry: What do you have for C=CC(=O)N1CCC[C@@H](n2nc(-c3ccc(Oc4ccccc4)cc3)c3c(N)ncnc32)C1 [Ibrutinib, reference compound] ?
Reply text: 23.7

###

testedTarget: VEGFR2 (Homo sapiens)
experimentalProtocol: Kinase activity test (ReactionBiology), % enzyme activity relative to DMSO
Format: biochemical
Set-up: purchased ReactionBiology
details: VEGFR2; 1 uM; Average
reportedMetric: % Enzyme Activity (relative to DMSO controls), Average (%)
Write the answer as a number in %, unit excluded.

Inquiry: Lab note: need % Enzyme Activity (relative to DMSO controls), Average with VEGFR2 (Homo sapiens) for entry CN1[C@@H]2CC[C@H]1C[C@@H](OC(=O)c1c[nH]c3ccccc13)C2 [Tropisetron] , please look it up.
Reply text: 100.61

Inquiry: What do you have for CC1(C)S[C@@H]2[C@H](NC(=O)[C@H](N)c3ccccc3)C(=O)N2[C@H]1C(=O)O [Ampicillin] ?
Reply text: 99.13

Inquiry: What do you have for O=C(N[C@H](CO)[C@H](O)c1ccc([N+](=O)[O-])cc1)C(Cl)Cl [Chloramphenicol] ?
Reply text: 102.81

Inquiry: What do you have for COc1ccc2c3c1O[C@H]1C[C@@H](O)C=C[C@@]31CCN(C)C2 [Galantamine] ?
Reply text: 103.82

Inquiry: What do you have for O=c1[nH]cc(F)c(=O)[nH]1 [Fluorouracil] ?
Reply text: 113.72

Inquiry: What do you have for Fc1ccc([C@@H]2CCNC[C@H]2COc2ccc3c(c2)OCO3)cc1 [Paroxetine] ?
Reply text: 108.60

Inquiry: What do you have for Cn1c(=O)cc(N2CCC[C@@H](N)C2)n(Cc2ccccc2C#N)c1=O [Alogliptin] ?
Reply text: 110.86

###

testedTarget: DAPK1 (Homo sapiens, UniProt P53355)
Construct: purchased ReactionBiology
experimentalProtocol: Kinase activity test (ReactionBiology), % enzyme activity relative to DMSO
Assay type: biochemical
details: DAPK1; 10 uM; replicate Data 1; read-out: % Enzyme Activity (relative to DMSO controls), Data 1
reportedMetric: remaining activity at 10 µM (%)
Write the answer as a number in %, unit excluded.

Inquiry: Lab note: need remaining activity at 10 µM with DAPK1 (Homo sapiens, UniProt P53355) for entry C=CC(=O)N1CCC[C@@H](n2nc(-c3ccc(Oc4ccccc4)cc3)c3c(N)ncnc32)C1 [Ibrutinib, reference compound] , please look it up.
Reply text: 24

Inquiry: What do you have for Nc1ncnc2c1ncn2[C@@H]1O[C@H](CO)[C@@H](O)[C@H]1O [Adenosine, reference compound] ?
Reply text: 80.8

Inquiry: What do you have for CC(=O)O[C@H]1C[C@@]2(C)[C@@H](C[C@@H](O)[C@H]3[C@@]4(C)CC[C@@H](O)[C@@H](C)[C@@H]4CC[C@@]32C)/C1=C(\CCC=C(C)C)C(=O)O ?
Reply text: 93

Inquiry: What do you have for C[C@]12CC[C@@H]3c4ccc(O)cc4CC[C@H]3[C@@H]1CC[C@@H]2O [Estradiol, reference compound] ?
Reply text: 68.3

Inquiry: What do you have for Cc1nc(Nc2ncc(C(=O)Nc3c(C)cccc3Cl)s2)cc(N2CCN(CCO)CC2)n1 [Dasatinib, reference compound] ?
Reply text: 49.9

Inquiry: What do you have for NC(=O)c1cccnc1 [Niacinamide, reference compound] ?
Reply text: 97.7

Inquiry: What do you have for Cc1cccc(C)c1OCC(=O)N[C@@H](Cc1ccccc1)[C@@H](O)C[C@H](Cc1ccccc1)NC(=O)[C@H](C(C)C)N1CCCNC1=O [Lopinavir, reference compound] ?
Reply text: 47.2

###

testedTarget: EPHB4 (Homo sapiens, UniProt P54760)
Construct: purchased ReactionBiology
Sequence (P54760 16-987): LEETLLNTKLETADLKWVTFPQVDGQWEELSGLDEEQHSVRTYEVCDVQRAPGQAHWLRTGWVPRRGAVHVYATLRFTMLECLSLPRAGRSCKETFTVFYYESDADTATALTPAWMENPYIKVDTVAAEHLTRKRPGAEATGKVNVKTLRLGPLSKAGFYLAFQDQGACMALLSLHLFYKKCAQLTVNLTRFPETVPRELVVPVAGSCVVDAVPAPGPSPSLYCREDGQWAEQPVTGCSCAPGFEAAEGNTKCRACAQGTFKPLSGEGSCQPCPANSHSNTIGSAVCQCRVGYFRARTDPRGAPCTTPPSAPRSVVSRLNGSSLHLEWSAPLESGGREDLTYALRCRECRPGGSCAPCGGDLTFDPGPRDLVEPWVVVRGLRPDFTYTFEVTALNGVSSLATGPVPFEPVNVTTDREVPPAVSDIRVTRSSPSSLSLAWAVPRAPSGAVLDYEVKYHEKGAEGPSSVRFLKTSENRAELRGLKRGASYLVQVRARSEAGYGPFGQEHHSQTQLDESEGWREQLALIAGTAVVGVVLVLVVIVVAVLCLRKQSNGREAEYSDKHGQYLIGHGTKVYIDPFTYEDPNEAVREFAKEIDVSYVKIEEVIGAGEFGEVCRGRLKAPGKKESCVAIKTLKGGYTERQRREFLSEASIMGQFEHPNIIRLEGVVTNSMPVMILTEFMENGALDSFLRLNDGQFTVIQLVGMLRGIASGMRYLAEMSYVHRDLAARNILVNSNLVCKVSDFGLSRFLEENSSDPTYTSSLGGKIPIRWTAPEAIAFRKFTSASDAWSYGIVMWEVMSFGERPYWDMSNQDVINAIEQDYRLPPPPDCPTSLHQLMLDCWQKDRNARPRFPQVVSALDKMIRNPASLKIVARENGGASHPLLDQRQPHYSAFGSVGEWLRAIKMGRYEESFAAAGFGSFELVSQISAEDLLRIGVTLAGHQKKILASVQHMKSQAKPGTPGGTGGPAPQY
experimentalProtocol: Kinase activity test (ReactionBiology), % enzyme activity relative to DMSO
Type: biochemical
details: EPHB4; 1 uM; replicate Data 1; read-out: % Enzyme Activity (relative to DMSO controls), Data 1
reportedMetric: remaining activity at 1 µM (%)
Write the answer as a number in %, unit excluded.

Inquiry: What value of remaining activity at 1 µM has been reported for the following compound? CC(=O)O[C@H]1C[C@@]2(C)[C@@H](C[C@@H](O)[C@H]3[C@@]4(C)CC[C@@H](O)[C@@H](C)[C@@H]4CC[C@@]32C)/C1=C(\CCC=C(C)C)C(=O)O [Fusidic acid]
Reply text: 101

Inquiry: What do you have for O=C(O)c1ccccc1O [Salicylic acid] ?
Reply text: 99.4

Inquiry: What do you have for Oc1cc(Cl)ccc1Oc1ccc(Cl)cc1Cl [Triclosan, reference compound] ?
Reply text: 101

Inquiry: What do you have for NCCCCCC(=O)O [Aminocaproic acid] ?
Reply text: 103

Inquiry: What do you have for C[C@]12CC[C@@H]3c4ccc(O)cc4CC[C@H]3[C@@H]1CC[C@@H]2O [Estradiol, reference compound] ?
Reply text: 99.8

Inquiry: What do you have for NC(=O)c1cccnc1 [Niacinamide, reference compound] ?
Reply text: 69
